src = patent US20260166139A1

# experimental.target: T1, CTLA4 antigen on the surface of 293F-CTLA4 host cells (UniProt P16410 36-223, limits assumed)
# T1 construct: whole, on cells
# T1 sequence (looked up): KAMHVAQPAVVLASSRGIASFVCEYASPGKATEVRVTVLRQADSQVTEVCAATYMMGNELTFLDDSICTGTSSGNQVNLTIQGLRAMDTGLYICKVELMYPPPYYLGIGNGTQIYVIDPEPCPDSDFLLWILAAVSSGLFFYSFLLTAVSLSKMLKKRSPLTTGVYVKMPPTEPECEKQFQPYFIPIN
# method.description: flow cytometry, 293F-CTLA4 cells; antibody 10 nM
measurement.kind: fluorescence intensity

Please look up its fluorescence intensity: 8D2 recombinant antibody, 8D2(Re) (antibody, V domains shown) VH: EVKLDETGGGLVQPGRPMKLSCVASGFTFSDNWMNWVRQSPEKGLEWLAQIRNKPYNYETYYSDSVKGRFTISRDDSKSSVYLQMNNLRGEDMGIYYCTAQFAYWGQGTLVTVSA VL: DIQMTQSPASLSASVGETVTITCGTSENIYGGLNWYQRKQGKSPQLLIFGATNLADGMSSRFSGSGSGRQYSLKISSLHPDDVATYYCQNVLRSPFTFGSGTKLEI
898

Please look up its fluorescence intensity: monoclonal antibody 8D2 (antibody, V domains shown, Murine antibody purified from hybridoma supernatant; also called mAb 8D2; antibody secreted by the CTLA4-8D2 hybridoma cell line LT001) VH: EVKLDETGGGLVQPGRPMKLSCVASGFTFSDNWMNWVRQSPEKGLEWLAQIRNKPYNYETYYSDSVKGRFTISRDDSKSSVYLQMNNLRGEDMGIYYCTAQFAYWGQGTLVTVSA VL: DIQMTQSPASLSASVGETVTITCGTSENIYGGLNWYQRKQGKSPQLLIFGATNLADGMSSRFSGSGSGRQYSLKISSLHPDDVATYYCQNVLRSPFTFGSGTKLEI
639

Please look up its fluorescence intensity: humanized antibody 8D2H2L2 (antibody, V domains shown, also called 8D2H2L2(20150327); 8D2H2L2(20140422)) VH: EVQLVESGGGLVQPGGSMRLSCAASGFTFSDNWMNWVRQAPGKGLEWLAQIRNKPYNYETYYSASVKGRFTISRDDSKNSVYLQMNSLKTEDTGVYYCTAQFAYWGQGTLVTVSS VL: DIQMTQSPSSLSASVGDRVTITCRTSENIYGGLNWYQRKPGKSPKLLIYGATNLASGVSSRFSGSGSGTDYTLTISSLQPEDVATYYCQNVLRSPFTFGSGTKLEIK
1160

Please look up its fluorescence intensity: humanized antibody 8D2H1L1 (antibody, V domains shown) VH: EVQLVESGGGLVQPGGSMRLSCAASGFTFSDNWMNWVRQAPGKGLEWLAQIRNKPYNYETYYSDSVKGRFTISRDDSKNSVYLQMNSLKTEDTGVYYCTAQFAYWGQGTLVTVSS VL: DIQMTQSPSSLSASVGDRVTITCRTSENIYGGLNWYQRKQGKSPKLLIYGATNLASGMSSRFSGSGSGTDYTLKISSLHPDDVATYYCQNVLRSPFTFGSGTKLEIK
944

Please look up its fluorescence intensity: humanized antibody 8D2H3L3 (antibody, V domains shown) VH: EVQLVESGGGLVQPGGSLRLSCAASGFTFSDNWMNWVRQAPGKGLEWVAQIRNKPYNYETEYAASVKGRFTISRDDSKNSAYLQMNSLKTEDTAVYYCTAQFAYWGQGTLVTVSS VL: DIQMTQSPSSLSASVGDRVTITCRASENIYGGLNWYQQKPGKAPKLLIYGATSLASGVPSRFSGSGSGTDYTLTISSLQPEDFATYYCQNVLRSPFTFGSGTKLEIK
1080
